- system: Ribonucleoside-diphosphate reductase RR1 (Homo sapiens, UniProt P23921+P31350+Q7LG56)
- Sequence (P23921 whole entry): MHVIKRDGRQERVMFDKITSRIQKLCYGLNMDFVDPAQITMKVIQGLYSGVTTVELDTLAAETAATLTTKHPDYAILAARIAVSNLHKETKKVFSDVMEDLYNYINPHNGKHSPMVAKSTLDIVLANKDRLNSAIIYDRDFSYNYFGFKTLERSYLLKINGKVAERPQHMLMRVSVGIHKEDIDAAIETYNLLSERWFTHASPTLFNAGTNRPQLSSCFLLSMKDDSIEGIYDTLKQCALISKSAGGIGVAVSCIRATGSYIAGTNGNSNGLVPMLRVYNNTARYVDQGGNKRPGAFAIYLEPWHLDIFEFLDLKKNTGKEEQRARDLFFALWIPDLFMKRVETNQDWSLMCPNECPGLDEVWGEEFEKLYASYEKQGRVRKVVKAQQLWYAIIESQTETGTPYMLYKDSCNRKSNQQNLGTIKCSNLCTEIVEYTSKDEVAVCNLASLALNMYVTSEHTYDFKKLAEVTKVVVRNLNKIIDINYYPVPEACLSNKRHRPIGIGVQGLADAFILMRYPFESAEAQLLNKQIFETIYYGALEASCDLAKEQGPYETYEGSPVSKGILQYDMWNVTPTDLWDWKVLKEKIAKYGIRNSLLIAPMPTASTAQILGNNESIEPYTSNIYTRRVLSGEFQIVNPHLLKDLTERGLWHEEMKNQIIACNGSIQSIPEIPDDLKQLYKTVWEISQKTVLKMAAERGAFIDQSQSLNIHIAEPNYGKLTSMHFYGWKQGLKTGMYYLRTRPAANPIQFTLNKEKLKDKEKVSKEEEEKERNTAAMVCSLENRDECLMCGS
- Sequence (Q7LG56 whole entry): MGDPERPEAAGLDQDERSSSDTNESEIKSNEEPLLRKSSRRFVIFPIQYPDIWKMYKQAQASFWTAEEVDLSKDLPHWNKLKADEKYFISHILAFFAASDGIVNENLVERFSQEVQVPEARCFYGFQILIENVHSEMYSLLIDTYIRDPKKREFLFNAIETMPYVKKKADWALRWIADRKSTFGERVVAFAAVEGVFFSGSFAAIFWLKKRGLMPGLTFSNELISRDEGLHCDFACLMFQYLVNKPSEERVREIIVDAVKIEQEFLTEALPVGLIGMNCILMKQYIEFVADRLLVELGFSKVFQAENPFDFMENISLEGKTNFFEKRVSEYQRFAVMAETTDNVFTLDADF
- Sequence (P31350 whole entry): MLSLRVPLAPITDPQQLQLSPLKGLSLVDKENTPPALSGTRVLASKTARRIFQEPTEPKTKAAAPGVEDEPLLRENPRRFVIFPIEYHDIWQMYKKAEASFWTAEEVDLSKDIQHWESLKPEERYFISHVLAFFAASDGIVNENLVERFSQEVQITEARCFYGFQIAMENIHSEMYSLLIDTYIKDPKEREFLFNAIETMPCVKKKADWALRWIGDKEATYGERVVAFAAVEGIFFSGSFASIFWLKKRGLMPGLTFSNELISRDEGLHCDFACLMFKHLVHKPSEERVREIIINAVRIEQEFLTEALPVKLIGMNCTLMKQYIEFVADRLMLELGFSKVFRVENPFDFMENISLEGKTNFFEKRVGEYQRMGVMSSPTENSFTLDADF
- protocol: Inhibition of mammalian ribonucleotide reductase
assay readout: IC50

Given the entry `CC(=O)N[C@H](C(=O)N[C@@H](CC(C)C)C(=O)N[C@@H](CC(=O)O)C(=O)N[C@@H](C)C(=O)N[C@@H](CC(=O)O)C(=O)N[C@@H](Cc1ccccc1)C(=O)O)[C@@H](C)O` , report its measured IC50.
> 400 µM

----------
- system: Ribonucleoside-diphosphate reductase RR1 (Homo sapiens) (UniProt P23921+Q7LG56+P31350)
- protocol: Relative inhibitory potency against mammalian ribonucleotide reductase
- Assay type: protein-complex assay
Square brackets hold non-standard residues; d marks the D form. Peptide text beside a SMILES is read from it. aThr = C[C@H](O)[C@H](N)C(=O)O
assay readout: RI (%)
Give the quantity in %, number only.

As a guide, the following entries are already answered.
CC(=O)N[C@@H](Cc1ccccc1)C(=O)N[C@H](C(=O)N[C@@H](CC(C)C)C(=O)N[C@@H](CC(=O)O)C(=O)N[C@@H](C)C(=O)N[C@@H](CC(=O)O)C(=O)N[C@@H](Cc1ccccc1)C(=O)O)[C@H](C)O (Ac-F[aThr]LDADF-OH) ... 100
CC(=O)N[C@@H](Cc1ccccc1)C(=O)N[C@H](C(=O)N[C@@H](CC(C)C)C(=O)N[C@@H](CC(=O)O)C(=O)NCC(=O)N[C@@H](CC(=O)O)C(=O)N[C@@H](Cc1ccccc1)C(=O)O)[C@H](C)O ... 9
CC(=O)N[C@@H](Cc1ccccc1)C(=O)N[C@H](C(=O)N[C@@H](CC(C)C)C(=O)N[C@@H](CC(=O)O)C(=O)N[C@@H](C)C(=O)N[C@@H](C)C(=O)N[C@@H](Cc1ccccc1)C(=O)O)[C@H](C)O ... 28

Give the reported RI for `CC(=O)N[C@@H](Cc1ccccc1)C(=O)N[C@H](C(=O)N[C@H](C(=O)N[C@@H](CC(=O)O)C(=O)N[C@@H](C)C(=O)N[C@@H](CC(=O)O)C(=O)N[C@@H](Cc1ccccc1)C(=O)O)C(C)C)[C@H](C)O` (system: Ribonucleoside-diphosphate reductase RR1 (Homo sapiens) (UniProt P23921+Q7LG56+P31350)).
35

Field: RI (Ribonucleoside-diphosphate reductase RR1 (Homo sapiens) (UniProt P23921+Q7LG56+P31350)). Entry: `CC(=O)N[C@@H](Cc1ccccc1)C(=O)N[C@H](C(=O)N[C@@H](CC(C)C)C(=O)N[C@@H](C)C(=O)N[C@@H](C)C(=O)N[C@@H](CC(=O)O)C(=O)N[C@@H](Cc1ccccc1)C(=O)O)[C@H](C)O`
2.9

GET /values?readout=RI&system=Ribonucleoside-diphosphate reductase RR1 (Homo sapiens) (UniProt P23921+Q7LG56+P31350)&item= `CC(=O)N[C@@H](Cc1ccccc1)C(=O)N[C@H](C(=O)N[C@@H](CC(C)C)C(=O)N[C@@H](CC(=O)O)C(=O)N[C@@H](C)C(=O)N[C@@H](CC(C)C)C(=O)N[C@@H](Cc1ccccc1)C(=O)O)[C@H](C)O`
34

For the record `CC(=O)N[C@@H](CO)C(=O)N[C@@H](Cc1ccccc1)C(=O)N[C@H](C(=O)N[C@@H](CC(C)C)C(=O)N[C@@H](CC(=O)O)C(=O)N[C@@H](C)C(=O)N[C@@H](CC(=O)O)C(=O)N[C@@H](Cc1ccccc1)C(=O)O)[C@H](C)O` , what value of RI is listed for Ribonucleoside-diphosphate reductase RR1 (Homo sapiens) (UniProt P23921+Q7LG56+P31350)?
100

Param readout= RI; system= Ribonucleoside-diphosphate reductase RR1 (Homo sapiens) (UniProt P23921+Q7LG56+P31350); entry= `CC(=O)N[C@@H](Cc1ccccc1)C(=O)N[C@H](C(=O)N[C@@H](CC(C)C)C(=O)N[C@@H](CC(N)=O)C(=O)N[C@@H](C)C(=O)N[C@@H](CC(=O)O)C(=O)N[C@@H](Cc1ccccc1)C(=O)O)[C@H](C)O` ; returns value.
40

FYI, the data here is from ChEMBL document CHEMBL1126924.
